The following compounds are shown together with reported fraction unbound values.
test: Percentage unbound in rat brain; format: ADME, tissue-based; conditions: brain tissue
Please reply with the number alone, leaving off any unit.

O=C1c2cc(COc3ccccc3)nn2CCN1c1ccc(F)cn1 :: 0.055

Continue with the next compound.
Notebook: O=C1c2cc(OCc3ccccc3)nn2CCN1c1ccc(F)cc1 , fraction unbound read as 0.065

###

molecular target: Metabotropic glutamate receptor 1 (Homo sapiens, UniProt Q13255); assay: Positive allosteric modulation of human mGlu1 receptor expressed in HEK293 cells assessed as calcium mobilization by fluorescence analysis
Sequence (Q13255 whole entry): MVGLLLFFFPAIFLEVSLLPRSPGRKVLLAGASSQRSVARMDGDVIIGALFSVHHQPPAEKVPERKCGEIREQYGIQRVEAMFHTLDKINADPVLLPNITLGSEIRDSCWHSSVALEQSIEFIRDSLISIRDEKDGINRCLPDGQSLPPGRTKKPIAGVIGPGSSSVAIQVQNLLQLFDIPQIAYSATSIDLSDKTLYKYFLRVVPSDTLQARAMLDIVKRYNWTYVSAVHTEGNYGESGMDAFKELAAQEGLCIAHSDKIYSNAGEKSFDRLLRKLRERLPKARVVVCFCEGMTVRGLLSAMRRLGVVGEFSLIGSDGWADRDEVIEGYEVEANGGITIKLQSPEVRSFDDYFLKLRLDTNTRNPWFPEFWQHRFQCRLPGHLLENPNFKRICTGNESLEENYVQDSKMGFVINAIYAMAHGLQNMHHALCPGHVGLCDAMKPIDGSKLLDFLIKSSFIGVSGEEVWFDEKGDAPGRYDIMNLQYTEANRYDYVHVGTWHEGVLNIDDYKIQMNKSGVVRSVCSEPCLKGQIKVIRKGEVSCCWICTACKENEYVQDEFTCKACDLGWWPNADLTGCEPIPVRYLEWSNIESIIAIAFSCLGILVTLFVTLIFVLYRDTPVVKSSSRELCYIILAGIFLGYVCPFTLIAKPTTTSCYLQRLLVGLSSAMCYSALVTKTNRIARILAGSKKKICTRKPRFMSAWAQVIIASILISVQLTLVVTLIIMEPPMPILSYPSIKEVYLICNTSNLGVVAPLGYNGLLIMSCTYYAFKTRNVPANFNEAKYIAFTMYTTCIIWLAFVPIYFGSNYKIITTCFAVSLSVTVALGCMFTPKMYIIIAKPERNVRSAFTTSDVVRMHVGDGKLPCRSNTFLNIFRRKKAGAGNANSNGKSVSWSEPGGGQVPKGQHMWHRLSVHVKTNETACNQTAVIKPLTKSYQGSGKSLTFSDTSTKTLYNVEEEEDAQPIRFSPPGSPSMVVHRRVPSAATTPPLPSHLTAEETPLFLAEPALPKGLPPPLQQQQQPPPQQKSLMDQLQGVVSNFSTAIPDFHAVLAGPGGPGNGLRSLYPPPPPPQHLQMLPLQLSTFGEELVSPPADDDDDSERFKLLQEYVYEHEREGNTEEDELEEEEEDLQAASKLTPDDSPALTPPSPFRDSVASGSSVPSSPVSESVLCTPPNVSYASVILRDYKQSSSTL
pEC50: −log10 of the molar value.
Result type: pEC50

O=C1c2cc(OCc3ccccc3)nn2CCN1c1ccc(F)cc1 :: < 5.00

Continue with the next molecule.
The value of pEC50 recorded for O=C1c2cc(COc3ccccc3)nn2CCN1c1ccc(F)cn1 when tested on Metabotropic glutamate receptor 1 (Homo sapiens, UniProt Q13255) reads < 5.00

###

biological target: Metabotropic glutamate receptor 5 (Homo sapiens); assay: Positive allosteric modulation of human mGlu5 expressed in HEK293 cells assessed as glutamate-induced calcium mobilization relative to glutamate; format: functional, cell-based
Threshold-based label: Emax under 70% gives criterion met, Emax not under 70% gives criterion not met.

Use the examples below as a reference point.
O=C1c2cc(COc3ccccc3)nn2CCN1c1cccnc1 :: criterion met
O=C1c2cc(COc3ccccc3)nn2CCN1c1ccc(F)c(F)c1 :: criterion not met

# input for lookup
Given Cc1ccc(N2CCn3nc(COc4ccccc4)cc3C2=O)cc1 , is recorded Emax strictly lower than 70%?
criterion met

###

molecular target: Metabotropic glutamate receptor 5 (Homo sapiens); assay: Positive allosteric modulation of human mGlu5 expressed in HEK293 cells assessed as glutamate-induced calcium mobilization relative to glutamate; format: functional, cell-based
Result type: Emax (%)
Give the number; % is assumed, so skip it.

O=C1c2cc(COc3ccccc3)nn2CCN1c1ccc(F)cc1 :: 79
O=C1c2cc(OCc3ccccc3)nn2CCN1c1ccc(F)cc1 :: 54
O=C1c2cc(COc3ccccc3)nn2CCN1c1ccccc1F :: 86
O=C1c2cc(COc3cccc(F)c3)nn2CCN1c1ccc(F)cc1 :: 70

The value of Emax recorded for Cc1c(COc2ccccc2)nn2c1C(=O)N(c1ccc(F)cc1)CC2 when tested on Metabotropic glutamate receptor 5 (Homo sapiens) reads 32

###

The following compounds are shown together with reported pEC50 values.
biological target: Metabotropic glutamate receptor 7 (Homo sapiens); experiment: Positive allosteric modulation of human mGlu7 receptor expressed in HEK293 cells assessed as calcium mobilization by fluorescence analysis
Sequence (Q14831 whole entry): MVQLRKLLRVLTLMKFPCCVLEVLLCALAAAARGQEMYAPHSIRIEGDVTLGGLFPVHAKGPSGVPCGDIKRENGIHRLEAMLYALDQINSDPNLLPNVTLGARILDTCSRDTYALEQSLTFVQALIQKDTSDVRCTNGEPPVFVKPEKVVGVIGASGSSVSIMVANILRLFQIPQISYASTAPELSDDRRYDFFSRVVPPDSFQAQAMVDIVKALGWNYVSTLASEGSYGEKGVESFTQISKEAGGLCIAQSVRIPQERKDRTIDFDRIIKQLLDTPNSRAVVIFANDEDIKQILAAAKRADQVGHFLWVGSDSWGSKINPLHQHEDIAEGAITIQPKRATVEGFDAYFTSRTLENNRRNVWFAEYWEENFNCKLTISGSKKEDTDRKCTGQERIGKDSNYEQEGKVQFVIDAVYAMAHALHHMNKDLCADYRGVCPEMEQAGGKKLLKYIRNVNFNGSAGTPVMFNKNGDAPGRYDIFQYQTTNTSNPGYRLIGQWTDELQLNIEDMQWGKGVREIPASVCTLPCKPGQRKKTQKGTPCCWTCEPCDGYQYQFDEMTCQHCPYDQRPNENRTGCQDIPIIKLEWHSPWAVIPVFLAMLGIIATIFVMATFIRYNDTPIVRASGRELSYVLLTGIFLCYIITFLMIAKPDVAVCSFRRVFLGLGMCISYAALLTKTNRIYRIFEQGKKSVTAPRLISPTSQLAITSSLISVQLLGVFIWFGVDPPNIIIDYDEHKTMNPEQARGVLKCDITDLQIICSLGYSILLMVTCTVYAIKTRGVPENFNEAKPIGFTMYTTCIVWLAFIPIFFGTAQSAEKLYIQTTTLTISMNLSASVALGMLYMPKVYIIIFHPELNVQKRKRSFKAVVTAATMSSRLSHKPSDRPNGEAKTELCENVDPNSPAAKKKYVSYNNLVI
pEC50: −log10 of the molar value.

O=C1c2cc(COc3ccccc3)nn2CCN1c1ccc(F)cn1 :: < 5.00

Continue with the next compound.
Notebook: O=C1c2cc(OCc3ccccc3)nn2CCN1c1ccc(F)cc1 , pEC50 read as < 5.00

###

experiment: in vivo; details: dog, po, 5 mg/kg
Result type: Tmax
I'd appreciate it if you wrote the number followed by its unit.

Notebook: O=C1c2cc(COc3ccccc3)nn2CCN1c1ccc(F)cn1 , Tmax read as 42 min

###

assay: Cmax in rat at 10 mg/kg, po; format: ADME, organism-based; set-up: dose 10 mg/kg, route oral; settings: in vivo
Result type: Cmax (ng/mL)
Give the number; ng/mL is assumed, so skip it.

Notebook: O=C1c2cc(COc3ccccc3)nn2CCN1c1ccc(F)cn1 , Cmax read as 730

###

assay: AUC (0 to infinity) in dog at 5 mg/kg, po; assay type: ADME, organism-based, Canis lupus familiaris; design: dose 5 mg/kg, time infinity, route oral; conditions: in vivo
Result type: AUC(0-inf)

Notebook: O=C1c2cc(COc3ccccc3)nn2CCN1c1ccc(F)cn1 , AUC(0-inf) read as 1540 ng·h/mL

###

target: Metabotropic glutamate receptor 5 (Homo sapiens, UniProt P41594); test: Positive allosteric modulation of human mGlu5 expressed in HEK293 cells assessed as glutamate-induced calcium mobilization; assay type: functional, cell-based; conditions: read-out: EC50
The following molecules are shown together with reported pEC50 values.
Schema: pEC50 number; meaning minus log10 of the concentration expressed in molar units.

Recorded results for 5 molecules are shown here.
O=C1c2cc(COc3ccccc3)nn2CCN1c1cccnc1 :: 5.68
O=C1c2cc(COc3ccccc3)nn2CCN1c1ncc(F)cn1 :: 6.12
O=C1c2cc(COc3ccccc3)nn2CCCN1c1ccc(F)cc1 :: 6.66
O=C1c2cc(COc3ccccc3)nn2CCN1c1ccccc1F :: 6.80
O=C1c2cc(COc3ccccc3)nn2CCN1c1ccncc1 :: 5.68

Continue with the next molecule.
Notebook: O=C1c2cc(COc3ccccc3)nn2CCN1c1ccc(F)c(F)c1 , pEC50 read as 7.06

###

target: Metabotropic glutamate receptor 3 (Homo sapiens); experiment: Antagonist activity at human mGlu3 expressed in HEK293 cells assessed as inhibition of glutamate-induced calcium mobilization; type: functional, cell-based
Sequence (Q14832 whole entry): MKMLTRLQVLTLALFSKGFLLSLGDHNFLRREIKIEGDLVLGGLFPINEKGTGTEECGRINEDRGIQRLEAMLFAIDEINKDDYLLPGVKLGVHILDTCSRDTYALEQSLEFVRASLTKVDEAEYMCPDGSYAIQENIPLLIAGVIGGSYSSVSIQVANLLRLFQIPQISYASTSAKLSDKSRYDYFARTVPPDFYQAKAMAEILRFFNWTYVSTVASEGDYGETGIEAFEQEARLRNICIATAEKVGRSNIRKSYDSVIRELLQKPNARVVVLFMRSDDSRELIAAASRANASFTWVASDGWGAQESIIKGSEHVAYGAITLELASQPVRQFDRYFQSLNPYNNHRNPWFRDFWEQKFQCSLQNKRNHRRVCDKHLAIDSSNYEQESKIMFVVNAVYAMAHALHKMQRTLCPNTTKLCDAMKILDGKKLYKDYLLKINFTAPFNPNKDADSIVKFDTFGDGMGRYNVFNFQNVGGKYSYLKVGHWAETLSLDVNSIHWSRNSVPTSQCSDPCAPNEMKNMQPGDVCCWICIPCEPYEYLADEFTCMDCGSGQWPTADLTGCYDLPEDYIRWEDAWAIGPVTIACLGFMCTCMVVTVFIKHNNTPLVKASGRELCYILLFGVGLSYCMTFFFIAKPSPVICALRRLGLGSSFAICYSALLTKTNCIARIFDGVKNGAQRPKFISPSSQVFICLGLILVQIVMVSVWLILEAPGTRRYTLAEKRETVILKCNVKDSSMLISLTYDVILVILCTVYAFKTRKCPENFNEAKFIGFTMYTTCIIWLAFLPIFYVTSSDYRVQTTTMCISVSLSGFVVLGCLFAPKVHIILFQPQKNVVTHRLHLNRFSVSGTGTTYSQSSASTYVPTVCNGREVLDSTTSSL
Result type: pEC50
Schema: pEC50 number; meaning minus log10 of the concentration expressed in molar units.

O=C1c2cc(COc3ccccc3)nn2CCCN1c1ccc(F)cc1 :: 6.27

Notebook: O=C1c2cc(COc3ccccn3)nn2CCN1c1ccc(F)cc1 , pEC50 read as 6.54

Notebook: Cc1ccc(N2CCn3nc(COc4ccccc4)cc3C2=O)cc1 , pEC50 read as 6.82

Notebook: O=C1c2cc(COc3ccccc3)nn2CCN1c1ccc(F)cc1 , pEC50 read as 7.13

Notebook: O=C1c2cc(COc3ccccc3)nn2CCN1c1ccc(F)cn1 , pEC50 read as 5.17

Notebook: O=C1c2cc(OCc3ccccc3)nn2CCN1c1ccc(F)cc1 , pEC50 read as 5.47

Notebook: O=C1c2cc(COc3ccc(F)cc3)nn2CCN1c1ccc(F)cc1 , pEC50 read as 7.47

###

test: Volume of distribution at steady state in rat at 2.5 mg/kg, iv; assay type: ADME, organism-based; conditions: in vivo, read-out: Vdss
Result type: Vd (L/kg)
Give the number; L/kg is assumed, so skip it.

Notebook: O=C1c2cc(COc3ccccc3)nn2CCN1c1ccc(F)cn1 , Vd read as 1.6

###

assay: AUC (0 to infinity) in rat at 10 mg/kg, po; type: ADME, organism-based; parameters: dose 10 mg/kg, route oral, time infinity; settings: in vivo
Result type: AUC(0-inf)
I'd appreciate it if you wrote the number followed by its unit.

Notebook: O=C1c2cc(COc3ccccc3)nn2CCN1c1ccc(F)cn1 , AUC(0-inf) read as 6670 ng·h/mL

###

target: Metabotropic glutamate receptor 4 (Homo sapiens, UniProt Q14833); assay: Positive allosteric modulation of human mGlu4 receptor expressed in L929sA cells assessed as calcium mobilization by fluorescence analysis; format: functional, cell-based
Result type: EC50

O=C1c2cc(OCc3ccccc3)nn2CCN1c1ccc(F)cc1 :: > 10 µM

Continue with the next compound.
The value of EC50 recorded for O=C1c2cc(COc3ccccc3)nn2CCN1c1ccc(F)cn1 when tested on Metabotropic glutamate receptor 4 (Homo sapiens, UniProt Q14833) reads > 10 µM

###

The following compounds are shown together with reported EC50 values.
target: Metabotropic glutamate receptor 4 (Homo sapiens, UniProt Q14833); test: Positive allosteric modulation of human mGlu4 receptor expressed in L929sA cells by [35S]-GTPgammaS binding assay; assay type: functional, cell-based

O=C1c2cc(OCc3ccccc3)nn2CCN1c1ccc(F)cc1 :: > 10 µM

Continue with the next compound.
Notebook: O=C1c2cc(COc3ccccc3)nn2CCN1c1ccc(F)cn1 , EC50 read as > 10 µM

###

target: UniProtKB P08684; assay: Inhibition of CYP3A4 (unknown origin); type: ADME
Sequence (P08684 whole entry): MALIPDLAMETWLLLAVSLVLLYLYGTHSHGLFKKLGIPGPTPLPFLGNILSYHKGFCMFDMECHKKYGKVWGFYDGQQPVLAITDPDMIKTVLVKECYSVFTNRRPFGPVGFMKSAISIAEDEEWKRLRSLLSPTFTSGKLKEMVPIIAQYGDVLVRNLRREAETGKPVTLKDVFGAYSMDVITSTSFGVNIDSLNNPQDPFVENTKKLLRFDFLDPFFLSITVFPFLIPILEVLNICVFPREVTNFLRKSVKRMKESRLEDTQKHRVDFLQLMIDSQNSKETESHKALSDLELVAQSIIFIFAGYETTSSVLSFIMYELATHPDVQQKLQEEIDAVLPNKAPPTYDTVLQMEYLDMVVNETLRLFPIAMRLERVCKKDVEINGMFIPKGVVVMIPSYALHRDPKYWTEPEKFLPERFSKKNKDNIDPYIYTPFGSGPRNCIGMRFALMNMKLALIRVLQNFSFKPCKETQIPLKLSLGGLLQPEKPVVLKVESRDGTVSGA
pIC50: −log10 of the molar value.
Result type: pIC50

Notebook: O=C1c2cc(COc3ccccc3)nn2CCN1c1ccc(F)cn1 , pIC50 read as ≤ 4.52

###

biological target: Voltage-gated inwardly rectifying potassium channel KCNH2 (Homo sapiens, UniProt Q12809)
Result type: IC50

The value of IC50 recorded for O=C1c2cc(COc3ccccc3)nn2CCN1c1ccc(F)cn1 when tested on Voltage-gated inwardly rectifying potassium channel KCNH2 (Homo sapiens, UniProt Q12809) reads > 10 µM

###

experiment: Plasma clearance in dog at 0.5 mg/kg, iv; type: ADME, organism-based, Canis lupus familiaris
Result type: clearance (L/h/kg)
Give the number; L/h/kg is assumed, so skip it.

Notebook: O=C1c2cc(COc3ccccc3)nn2CCN1c1ccc(F)cn1 , clearance read as 1.5

###

target: UniProt O00222; assay: Positive allosteric modulation of human mGlu8 receptor expressed in HEK293 cells assessed as calcium mobilization by fluorescence analysis
Sequence (O00222 whole entry): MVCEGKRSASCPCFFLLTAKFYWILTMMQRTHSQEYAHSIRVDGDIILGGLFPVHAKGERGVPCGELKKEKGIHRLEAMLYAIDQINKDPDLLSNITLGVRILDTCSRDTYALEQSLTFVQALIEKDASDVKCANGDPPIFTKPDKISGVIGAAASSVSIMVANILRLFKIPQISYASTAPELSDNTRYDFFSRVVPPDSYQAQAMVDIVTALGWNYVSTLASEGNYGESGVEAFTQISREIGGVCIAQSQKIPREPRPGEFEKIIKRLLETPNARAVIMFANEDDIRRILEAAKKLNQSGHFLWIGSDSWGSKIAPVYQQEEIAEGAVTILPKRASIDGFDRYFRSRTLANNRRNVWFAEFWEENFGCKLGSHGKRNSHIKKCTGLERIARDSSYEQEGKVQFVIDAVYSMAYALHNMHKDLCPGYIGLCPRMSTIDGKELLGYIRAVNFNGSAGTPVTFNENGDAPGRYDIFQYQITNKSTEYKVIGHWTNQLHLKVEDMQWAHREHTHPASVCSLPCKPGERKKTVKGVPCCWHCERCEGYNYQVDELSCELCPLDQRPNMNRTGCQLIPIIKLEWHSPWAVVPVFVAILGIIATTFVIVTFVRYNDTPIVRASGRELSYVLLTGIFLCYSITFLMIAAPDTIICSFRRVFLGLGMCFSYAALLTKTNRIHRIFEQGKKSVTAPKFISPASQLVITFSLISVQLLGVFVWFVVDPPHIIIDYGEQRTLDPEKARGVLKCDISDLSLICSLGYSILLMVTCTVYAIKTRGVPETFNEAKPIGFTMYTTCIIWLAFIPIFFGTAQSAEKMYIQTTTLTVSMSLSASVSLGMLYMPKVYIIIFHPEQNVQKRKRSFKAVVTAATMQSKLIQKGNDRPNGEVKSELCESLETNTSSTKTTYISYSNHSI
pEC50: −log10 of the molar value.
The following molecules are shown together with reported pEC50 values.

O=C1c2cc(COc3ccccc3)nn2CCN1c1ccc(F)cn1 :: < 5.00

Continue with the next molecule.
Notebook: O=C1c2cc(OCc3ccccc3)nn2CCN1c1ccc(F)cc1 , pEC50 read as < 5.00
